target: corticotropin releasing factor 1 receptor; test: cell-based or functional assay
Decision: CRF1R EC50 >= 70 nM yields met, all other cases yield not met.

ZGPPISIDLPTLLLRKMIEIEKQEKEKQQAANNRLLLDTI (C-terminal amide) [SEQ ID NO 51]    met
ZGPPISIDLPYVLLRKMIEIEKQEKEKQQAANNRLLLDTI (C-terminal amide) [SEQ ID NO 201]    met
ZGPPISIDLPIYLLRKMIEIEKQEKEKQQATTNARILARV (C-terminal amide) [SEQ ID NO 149]    met
ZGPPISIDLPFQLLRKMIEIEKQEKEKQQATTNARILARV (C-terminal amide) [SEQ ID NO 148]    met
ZGPPISIDLPWHLLRKMIEIEKQEKEKQQAANNRLLLDTI (C-terminal amide) [SEQ ID NO 209]    not met

Origin of the recorded values: patent US20030148958A1
